Molecular target: T1, Recombinant Human DLL4 (delta-like protein 4) (human, UniProt Q9NR61 27-524)
T1 construct: Bought recombinant human DLL4 coated on the ELISA plate; also called rHuman DLL4
Assay: ELISA, DLL4 coated on plate, Fab at 100 nM (2-fold dilution series), absorbance at 450 nm
Listing of recorded ELISA signal by entry.
Please reply with the number alone, leaving off any unit.

INSERT INTO results (binder, measure_name, reported) VALUES
  ('Fab VH5-51_IGHD5-18*01>3_IGHJ4*01 G100K/G104T G24L/S28R/G35V (KT LRV) & V3-4_IGLJ1*01 V91L/S96P S52T (Fab, V domains shown, Fab; Expressed in E. coli with CH1 (plasmid A, His6 and Flag tags) and lambda CL (plasmid E); also called G100K/G104T G24L/S28R/G35V & V91L/S96P S52T) VH: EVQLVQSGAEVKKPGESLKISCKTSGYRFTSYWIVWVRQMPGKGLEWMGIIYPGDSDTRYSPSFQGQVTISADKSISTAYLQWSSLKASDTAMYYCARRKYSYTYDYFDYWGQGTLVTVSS VL: QTVVTQEPSFSVSPGGTVTLTCGLSSGSVSTSYYPSWYQQTPGQAPRTLIYTTNTRSSGVPDRFSGSILGNKAALTITGAQADDESDYYCLLYMGPGISYVFGTGTKVTVL', 'ELISA signal', 0.99);

Next item in the queue.
Entry Fab VH5-51_IGHD5-18*01>3_IGHJ4*01 G100K/G104T G24T/S28R/G35V (KT TRV) & V3-4_IGLJ1*01 (wildtype) (Fab, V domains shown, Fab; Expressed in E. coli with CH1 (plasmid A, His6 and Flag tags) and lambda CL (plasmid E); also called H:KT TRV & L:wt) VH: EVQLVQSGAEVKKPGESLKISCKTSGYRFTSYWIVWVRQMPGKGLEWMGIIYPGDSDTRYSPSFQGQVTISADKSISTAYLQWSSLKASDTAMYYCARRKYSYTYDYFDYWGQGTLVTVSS VL: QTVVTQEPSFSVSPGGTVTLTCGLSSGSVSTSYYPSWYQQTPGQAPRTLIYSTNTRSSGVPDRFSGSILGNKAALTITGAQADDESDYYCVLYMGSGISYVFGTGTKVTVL has what ELISA signal?
0.45
